Measurement name: melting point

Consider the molecule COc1ccc(Nc2ncccc2C(=O)NCc2cn(Cc3cccc(Oc4ccccc4)c3)nn2)cc1 [Compound 1e] and give its recorded melting point.
95 to 98 °C

Respond only with melting point recorded for COc1cc(Cn2cc(CNC(=O)c3cccnc3Nc3ccc(F)cc3)nn2)cc(OC)c1 [Compound 6b]
140 to 142 °C

Report melting point for O=C(NCc1cn(Cc2cccc(Oc3ccccc3)c2)nn1)c1cccnc1Nc1ccc(F)cc1 [Compound 1b]
160 to 162 °C

###

Measurement name: GI50 (µM)
Write it as a number; the unit µM goes unstated.

Report GI50 from SK-MEL-2 testing of COc1ccc(Nc2ncccc2C(=O)NCc2cn(Cc3cccc(Oc4ccccc4)c3)nn2)cc1
3.66

Return reported GI50 for target or system SK-MEL-2, item O=C(NCc1cn(Cc2cccc(Oc3ccccc3)c2)nn1)c1cccnc1Nc1ccc(F)cc1 .
34.2

System SK-MEL-2. Read-out GI50. Item COc1ccc(Nc2ncccc2C(=O)NCc2cn(Cc3cccc(Oc4ccccc4)c3)nn2)c(OC)c1 . Report value.
7.67

Fill: GI50 (SK-MEL-2) for this molecule O=C(NCc1cn(Cc2cccc(Oc3ccccc3)c2)nn1)c1cccnc1NCc1ccc(Cl)cc1
4.44

# assay system SK-MEL-2: give GI50 of O=C(NCc1cn(Cc2cccc(Oc3ccccc3)c2)nn1)c1cccnc1Nc1ccccc1
6.05

For SK-MEL-2, give GI50 of the listed molecule: COc1cc(Nc2ncccc2C(=O)NCc2cn(Cc3cccc(Oc4ccccc4)c3)nn2)cc(OC)c1
6.69
